Values were extracted from ChEMBL document CHEMBL1154956.

Reported values of MIC90 for individual entries
Test system: Aspergillus niger
Experiment: Antifungal activity against Aspergillus niger by NCCLS broth microdilution method
Assay type: functional
Condition Info: Aspergillus niger; read-out: MIC90

> print(dat)
                                   compound  property.label  measurement
1  CO/N=C1\C2CCCC1(C)C(c1ccc(Br)cc1)NC2c1ccc(Br)cc1 (centres undefined)           MIC90     32 µg/mL
2  Cc1ccccc1C1NC(c2ccccc2C)C2(C)CCCC1/C2=N\O (centres undefined)           MIC90     64 µg/mL
3  CC12CCCC(/C1=N\O)C(c1ccc(Br)cc1)NC2c1ccc(Br)cc1 (centres undefined)           MIC90    128 µg/mL

Kindly consider the entry below.
**Q:** Need MIC90, item CC12CCCC(/C1=N\O)C(c1ccccc1)NC2c1ccccc1 (centres undefined)
**A:** > 128 µg/mL

* * *

Test system: Staphylococcus aureus
Experiment: Antibacterial activity against Staphylococcus aureus by NCCLS broth microdilution method
Assay type: functional
Property Label: MIC90
Note: a bare number is incomplete; add the unit.

As a guide, the following entries are already answered.
> print(dat)
                                   compound  property.label  measurement
1  CC1CC2C(=NO)C(C1)C(c1cccc(F)c1)NC2c1cccc(F)c1 (stereo in doubt; 50b)           MIC90     32 µg/mL
2  CON=C1C2CC(C)CC1C(c1ccccc1F)NC2c1ccccc1F (stereo in doubt; 55b)           MIC90     16 µg/mL

**Q:** Need MIC90, item CON=C1C2CC(C)CC1C(c1ccccc1F)NC2c1ccccc1F (stereo in doubt; 55a)
**A:** 2 µg/mL

**Q:** Need MIC90, item CC1CC2C(=NO)C(C1)C(c1ccccc1F)NC2c1ccccc1F (stereo in doubt; 49b)
**A:** 32 µg/mL

* * *

System: Aspergillus niger
Experiment: Antifungal activity against Aspergillus niger by NCCLS broth microdilution method
Format: functional
Condition Info: Aspergillus niger; read-out: MIC90
Property Label: MIC90 (µg/mL)
Answer in µg/mL, number only, no unit symbol.

> print(dat)
                                   molecule  measurement
1  CO/N=C1\C2CCCC1(C)C(c1ccccc1F)NC2c1ccccc1F (stereo not given)           16
2  Cc1ccc(C2NC(c3ccc(C)cc3)C3(C)CCCC2/C3=N\O)cc1 (stereo not given)           64
3  COc1ccccc1C1NC(c2ccccc2OC)C2(C)CCCC1/C2=N\O (stereo not given)          128
4  CC12CCCC(/C1=N\O)C(c1ccccc1Br)NC2c1ccccc1Br (stereo not given)          128

**Q:** Enter reported MIC90 observed with Aspergillus niger for CO/N=C1\C2CCCC1(C)C(c1cccc(Cl)c1)NC2c1cccc(Cl)c1 (stereo not given)
**A:** 128

* * *

System: Pseudomonas aeruginosa
Experiment: Antibacterial activity against Pseudomonas aeruginosa by NCCLS broth microdilution method
Format: functional
Condition Info: Pseudomonas aeruginosa; read-out: MIC90
Reported values of MIC90 for individual entries
Answer in µg/mL, number only, no unit symbol.

As a guide, the following entries are already answered.
> print(dat)
                                   compound  property.label  measurement
1  COc1ccccc1C1NC(c2ccccc2OC)C2(C)CCCC1/C2=N\O (stereo not drawn)           MIC90          128
2  CC12CCCC(/C1=N\O)C(c1ccccc1Cl)NC2c1ccccc1Cl (stereo not drawn)           MIC90           32
3  CON=C1C2CC(C)CC1C(c1ccc(Cl)cc1)NC2c1ccc(Cl)cc1 (stereo not drawn)           MIC90           32
4  CO/N=C1\C2CCCC1(C)C(c1ccc(OC)cc1)NC2c1ccc(OC)cc1 (stereo not drawn)           MIC90          128
5  CC12CCCC(/C1=N\O)C(c1ccc(F)cc1)NC2c1ccc(F)cc1 (stereo not drawn)           MIC90           64
6  CON=C1C2CC(C)CC1C(c1cccc(F)c1)NC2c1cccc(F)c1 (stereo in doubt; 56a)           MIC90           64
7  CC1CC2C(=NO)C(C1)C(c1cccc(Cl)c1)NC2c1cccc(Cl)c1 (stereo not drawn)           MIC90           64

Kindly consider the entry below.
**Q:** Need MIC90, item CC1CC2C(=NO)C(C1)C(c1cccc(F)c1)NC2c1cccc(F)c1 (stereo in doubt; 50a)
**A:** 64
